Reported IC50 values for a set of molecules
Target: Estrogen receptor beta (Homo sapiens, UniProt Q92731)
Sequence (Q92731 whole entry): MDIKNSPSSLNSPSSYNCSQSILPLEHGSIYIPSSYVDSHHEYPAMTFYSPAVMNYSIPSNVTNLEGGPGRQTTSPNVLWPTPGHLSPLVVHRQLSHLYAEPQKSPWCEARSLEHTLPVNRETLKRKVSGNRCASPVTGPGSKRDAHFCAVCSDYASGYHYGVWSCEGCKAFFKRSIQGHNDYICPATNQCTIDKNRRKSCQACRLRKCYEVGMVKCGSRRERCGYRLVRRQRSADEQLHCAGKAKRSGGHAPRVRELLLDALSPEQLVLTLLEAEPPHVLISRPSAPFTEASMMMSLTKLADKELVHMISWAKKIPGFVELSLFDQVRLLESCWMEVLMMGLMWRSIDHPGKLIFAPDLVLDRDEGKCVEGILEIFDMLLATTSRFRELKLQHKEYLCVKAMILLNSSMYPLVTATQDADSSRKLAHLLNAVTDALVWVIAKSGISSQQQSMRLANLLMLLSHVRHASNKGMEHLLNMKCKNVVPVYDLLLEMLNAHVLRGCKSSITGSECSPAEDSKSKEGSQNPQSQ
// note: answer is a bare numeric in nM

Before answering, review these 4 worked examples.
stdin: Report value: IC50, system: Estrogen receptor beta (Homo sapiens, UniProt Q92731), molecule: Oc1ccc2c(c1)S[C@H](C1CCCC1)[C@H](c1ccc(OCCN3CCCCC3)cc1)O2
stdout: 31

stdin: Enter recorded IC50 with Estrogen receptor beta (Homo sapiens, UniProt Q92731) for Oc1ccc2c(c1)S[C@H](c1ccncc1)[C@H](c1ccc(OCCN3CCCCC3)cc1)O2 here.
stdout: 8200

stdin: Fill: IC50 (Estrogen receptor beta (Homo sapiens, UniProt Q92731)) for this molecule CC(C)C[C@H]1Sc2cc(O)ccc2O[C@H]1c1ccc(OCCN2CCCCC2)cc1
stdout: 38

stdin: Report the value of IC50 obtained on Estrogen receptor beta (Homo sapiens, UniProt Q92731) for Oc1ccc(C[C@H]2Sc3cc(O)ccc3O[C@H]2c2ccc(OCCN3CCCCC3)cc2)cc1 .
stdout: 308

---
stdin: Specify IC50 for Oc1ccc2c(c1)S[C@H](c1cccs1)[C@H](c1ccc(OCCN3CCCCC3)cc1)O2 , system Estrogen receptor beta (Homo sapiens, UniProt Q92731).
stdout: 162

====

The following are reported pIC50 results, target or system Estrogen receptor beta (Homo sapiens, UniProt Q92731).
Just so you know, pIC50 here is -log10 of the concentration in molar units; reply with that number alone.

stdin: Give the value of pIC50 reported for the following: Oc1ccc2c(c1)S[C@H](c1cccnc1)[C@H](c1ccc(OCCN3CCCCC3)cc1)O2
stdout: 5.08

stdin: Retrieve pIC50 measured for Oc1ccc2c(c1)S[C@H](CC1CCCCC1)[C@H](c1ccc(OCCN3CCCCC3)cc1)O2 and print it.
stdout: 7.40

stdin: Provide pIC50 value for the following compound: Oc1ccc2c(c1)S[C@H](CC1CCCC1)[C@H](c1ccc(OCCN3CCCCC3)cc1)O2
stdout: 7.47

Further cases:
stdin: Tell me its pIC50 given Oc1ccc2c(c1)S[C@H](c1ccco1)[C@H](c1ccc(OCCN3CCCCC3)cc1)O2 as the entry.
stdout: 6.44

stdin: Determine its reported pIC50: Oc1ccc2c(c1)S[C@H](C1CCCCC1)[C@H](c1ccc(OCCN3CCCCC3)cc1)O2
stdout: 7.80
